tested on: ALOMY; test: Pre-emergence herbicidal action against ALOMY; assay type: in vivo, Alopecurus myosuroides; settings: Alopecurus myosuroides, 504 h; 80 g/ha, pre-emergence, scored visually after 3 weeks vs untreated controls (100% = plants have died, 0% = like control plants)
observable: pest or weed control at 80 g/ha
Express your answer as a number followed by its unit.

Record excerpt, results attached:
[[record]]
molecule_smiles = "Cc1c(C(=O)Nc2nnnn2C)ccc(C(F)(F)F)c1C(=O)NC(C)C"
target_or_system = "ALOMY"
observable = "pest or weed control at 80 g/ha"
reported_measurement = "100%"

[[record]]
molecule_smiles = "CNC(=O)c1c(C(F)(F)F)ccc(C(=O)Nc2nnc(C)o2)c1Cl"
target_or_system = "ALOMY"
observable = "pest or weed control at 80 g/ha"
reported_measurement = "100%"

[[record]]
molecule_smiles = "CNC(=O)c1c(C(F)(F)F)ccc(C(=O)Nc2nnnn2C)c1Cl"
target_or_system = "ALOMY"
observable = "pest or weed control at 80 g/ha"
reported_measurement = "100%"

[[record]]
molecule_smiles = "CCn1nnnc1NC(=O)c1ccc(C(F)F)c(C(=O)NC(C)C)c1C"
target_or_system = "ALOMY"
observable = "pest or weed control at 80 g/ha"
reported_measurement = "80%"

[[record]]
molecule_smiles = "CCNC(=O)c1c(C(F)(F)F)ccc(C(=O)Nc2nnnn2C)c1C"
target_or_system = "ALOMY"
observable = "pest or weed control at 80 g/ha"
reported_measurement = "100%"

[[record]]
molecule_smiles = "CCNC(=O)c1c(C(F)F)ccc(C(=O)Nc2nnnn2C)c1C"
target_or_system = "ALOMY"
observable = "pest or weed control at 80 g/ha"
reported_measurement = "90%"

[[record]]
molecule_smiles = "CCn1nnnc1NC(=O)c1ccc(C(F)(F)F)c(C(=O)NC)c1Br"
target_or_system = "ALOMY"
observable = "pest or weed control at 80 g/ha"
reported_measurement = "90%"

[[record]]
molecule_smiles = "CNC(=O)c1c(C(F)F)ccc(C(=O)Nc2nnnn2C)c1Cl"
target_or_system = "ALOMY"
observable = "pest or weed control at 80 g/ha"
reported_measurement = "90%"


Answer with the recorded pest or weed control at 80 g/ha for the compound listed here: CCCNC(=O)c1c(C(F)F)ccc(C(=O)Nc2nnnn2CC)c1C 100%

Cited source for all entries: patent US12655116B2
